// reported degree of damage to the plants (% damage vs untreated control), Matricaria per item
System: Matricaria
Assay: Pre-emergence test/Greenhouse, Matricaria
Format: in vivo
Conditions: 15 g of ai./ha, after three weeks
endpoint: degree of damage to the plants (% damage vs untreated control), Matricaria (%)

* C=CCOc1nn(C(=O)NS(=O)(=O)c2c(C)cccc2C(=O)OC)c(=O)n1C1CC1 [Example 147] | 70
* COC(=O)c1cccc(C)c1S(=O)(=O)NC(=O)n1nc(SCCF)n(C2CC2)c1=O [Example 151] | 90
* COC(=O)c1cccc(C)c1S(=O)(=O)NC(=O)n1nc(OCC(F)(F)F)n(C2CC2)c1=O [Example 142] | 80
* CCSc1nn(C(=O)NS(=O)(=O)c2c(C)cccc2C(=O)OC)c(=O)n1C [Example 141] | 80
* COC(=O)c1cccc(C)c1S(=O)(=O)NC(=O)n1nc(OC(C)C)n(C2CC2)c1=O [Example 166] | 95
* COC(=O)c1scc(C)c1S(=O)(=O)NC(=O)n1nc(OC)n(C)c1=O [Example 31] | 95

====

Test system: Ambrosia
Experiment: Pre-emergence test/Greenhouse, Ambrosia
Format: in vivo
Settings: 30 g of ai./ha, after three weeks
endpoint: degree of damage to the plants (% damage vs untreated control), Ambrosia (%)

* CCCOc1nn(C(=O)NS(=O)(=O)c2c(C)cccc2C(=O)OC)c(=O)n1C [Example 140] | 80
* COc1nn(C(=O)NS(=O)(=O)c2c(C)cccc2C(=O)OC(C)C)c(=O)n1C [Example 16] | 95
* CCSc1nn(C(=O)NS(=O)(=O)c2c(C)cccc2C(=O)OC)c(=O)n1C1CC1 [Example 159] | 95
* CCOc1nn(C(=O)NS(=O)(=O)c2c(C)csc2C(=O)OC)c(=O)n1C [Example 1] | 95

====

System: Soya beans
Test: Pre-emergence test/Greenhouse, Soya beans
Assay type: in vivo
Details: in vivo
If the reported degree of damage to the plants (% damage vs untreated control), Soya beans equals or exceeds 10%, assign condition met. If not, assign condition not met.

* C#CCSc1nn(C(=O)NS(=O)(=O)c2c(C)csc2C(=O)OC)c(=O)n1C | condition met
* CCCOC(=O)c1cccc(C)c1S(=O)(=O)NC(=O)n1nc(OC(C)C)n(C)c1=O | condition not met
* CCSc1nn(C(=O)NS(=O)(=O)c2c(C)csc2C(=O)OC)c(=O)n1C | condition not met
* COC(=O)c1cccc(C)c1S(=O)(=O)[N-]C(=O)n1nc(SC)n(C)c1=O.[Na+] | condition not met
* CCOc1nn(C(=O)NS(=O)(=O)c2c(OC)cccc2C(=O)OC)c(=O)n1C | condition met
* COC(=O)c1cccc(OC)c1S(=O)(=O)NC(=O)n1nc(OC(C)C)n(C2CC2)c1=O | condition met
* CCOC(=O)c1scc(C)c1S(=O)(=O)NC(=O)n1nc(SCC)n(C)c1=O | condition not met
* CCOn1c(CC)nn(C(=O)NS(=O)(=O)c2c(C)cccc2C(=O)OC)c1=O | condition met
* CCCOC(=O)c1cccc(C)c1S(=O)(=O)NC(=O)n1nc(OCC)n(C)c1=O | condition not met
* COC(=O)c1cccc(C)c1S(=O)(=O)NC(=O)n1nc(SCCF)n(C)c1=O | condition met
* COC(=O)c1cccc(C)c1S(=O)(=O)NC(=O)n1nc(OC)n(C2CC2)c1=O | condition not met

====

// reported degree of damage to the plants (% damage vs untreated control), Lolium per item
Test system: Lolium
Assay: Pre-emergence test/Greenhouse, Lolium
Assay type: in vivo
Details: 60 g of ai./ha, after three weeks
endpoint: degree of damage to the plants (% damage vs untreated control), Lolium (%)

* COC(=O)c1cccc(C)c1S(=O)(=O)NC(=O)n1nc(OCC2CC2)n(C)c1=O | 80
* CCSc1nn(C(=O)NS(=O)(=O)c2c(C)cccc2C(=O)OC)c(=O)n1OC | 90
* CCCc1nn(C(=O)[N-]S(=O)(=O)c2c(C)cccc2C(=O)OC)c(=O)n1C.[Na+] | 95
* COC(=O)c1cccc(C)c1S(=O)(=O)NC(=O)n1nc(OCC(F)(F)F)n(C)c1=O | 90
* CCOC(=O)c1cccc(C)c1S(=O)(=O)NC(=O)n1nc(SC)n(C)c1=O | 95
* CCOC(=O)c1scc(C)c1S(=O)(=O)NC(=O)n1nc(OC)n(C)c1=O | 95
* C#CCSc1nn(C(=O)NS(=O)(=O)c2c(C)cccc2C(=O)OC)c(=O)n1C | 95
* COC(=O)c1cccc(C)c1S(=O)(=O)[N-]C(=O)n1nc(SC)n(C)c1=O.[Na+] | 95
* CCc1nn(C(=O)NS(=O)(=O)c2c(C)csc2C(=O)OC(C)C)c(=O)n1C | 95
* CCCc1nn(C(=O)NS(=O)(=O)c2c(C)csc2C(=O)OCC)c(=O)n1C | 100
* C#CCSc1nn(C(=O)NS(=O)(=O)c2c(C)cccc2C(=O)OC)c(=O)n1C1CC1 | 90
* CCOc1nn(C(=O)NS(=O)(=O)c2c(C)csc2C(=O)OC)c(=O)n1CC | 60
* CCSc1nn(C(=O)NS(=O)(=O)c2c(C)csc2C(=O)OC)c(=O)n1C | 60
* CCOc1nn(C(=O)NS(=O)(=O)c2c(C)csc2C(=O)OC(C)C)c(=O)n1C | 95
* C=CCOc1nn(C(=O)NS(=O)(=O)c2c(C)cccc2C(=O)OC)c(=O)n1C | 80
* CCSc1nn(C(=O)NS(=O)(=O)c2c(C)csc2C(=O)OC(C)C)c(=O)n1C | 100
* CCOn1c(CC)nn(C(=O)NS(=O)(=O)c2c(C)csc2C(=O)OC)c1=O | 95
* CCOc1nn(C(=O)NS(=O)(=O)c2c(C)cccc2C(=O)OC(C)C)c(=O)n1CC | 95
* COCc1nn(C(=O)NS(=O)(=O)c2c(C)csc2C(=O)OC)c(=O)n1C1CC1 | 95
* CCCc1nn(C(=O)NS(=O)(=O)c2c(C)csc2C(=O)OC)c(=O)n1C | 95
* CCOC(=O)c1scc(C)c1S(=O)(=O)NC(=O)n1nc(OC(C)C)n(C2CC2)c1=O | 90
* CCSc1nn(C(=O)NS(=O)(=O)c2c(C)cccc2C(=O)OC(C)C)c(=O)n1C | 95
* COC(=O)c1cccc(C)c1S(=O)(=O)NC(=O)n1nc(SC)n(OC)c1=O | 70
* COC(=O)c1cccc(C)c1S(=O)(=O)NC(=O)n1nc(OC)n(C)c1=O | 95
* CCOn1c(SC)nn(C(=O)NS(=O)(=O)c2c(C)cccc2C(=O)OC)c1=O | 80
* CCOC(=O)c1scc(C)c1S(=O)(=O)NC(=O)n1nc(OCC)n(CC)c1=O | 90
* COc1nn(C(=O)NS(=O)(=O)c2c(C)csc2C(=O)OC(C)C)c(=O)n1C | 60
* CCOn1c(SCC)nn(C(=O)NS(=O)(=O)c2c(C)cccc2C(=O)OC)c1=O | 90
* CCCc1nn(C(=O)NS(=O)(=O)c2c(C)csc2C(=O)OC)c(=O)n1OC | 95
* CCn1c(OC)nn(C(=O)NS(=O)(=O)c2c(C)cccc2C(=O)OC(C)C)c1=O | 95
* COC(=O)c1scc(C)c1S(=O)(=O)NC(=O)n1nc(OC(C)C)n(C)c1=O | 90
* COCc1nn(C(=O)NS(=O)(=O)c2c(C)csc2C(=O)OC)c(=O)n1C | 95
* CCn1c(OC)nn(C(=O)NS(=O)(=O)c2c(C)csc2C(=O)OC)c1=O | 90
* CCCOC(=O)c1scc(C)c1S(=O)(=O)NC(=O)n1nc(OCC)n(C2CC2)c1=O | 90

====

Test system: Soya beans
Experiment: Pre-emergence test/Greenhouse, Soya beans
Assay type: in vivo
Conditions: in vivo
endpoint: degree of damage to the plants (% damage vs untreated control), Soya beans

- CCSc1nn(C(=O)NS(=O)(=O)c2c(C)cccc2C(=O)OC)c(=O)n1C: 0%
- C#CCSc1nn(C(=O)NS(=O)(=O)c2c(C)cccc2C(=O)OC)c(=O)n1C1CC1: 10%
- C=CCn1c(SCCF)nn(C(=O)NS(=O)(=O)c2c(C)cccc2C(=O)OC)c1=O: 30%
- CCCOC(=O)c1cccc(C)c1S(=O)(=O)NC(=O)n1nc(SCC)n(C)c1=O: 20%
- CCOC(=O)c1scc(C)c1S(=O)(=O)NC(=O)n1nc(OCC)n(CC)c1=O: 30%
- COC(=O)c1scc(C)c1S(=O)(=O)NC(=O)n1nc(OC(C)C)n(C)c1=O: 30%
- CCCOc1nn(C(=O)NS(=O)(=O)c2c(C)cccc2C(=O)OC)c(=O)n1C1CC1: 10%
- CCSc1nn(C(=O)NS(=O)(=O)c2c(C)cccc2C(=O)OC)c(=O)n1OC: 20%
